tested on: KRAS G12S (Homo sapiens, UniProt P01116+P62937, G12S)
Sequence (P01116 1-169 isoform P01116-2 G12S limits assumed): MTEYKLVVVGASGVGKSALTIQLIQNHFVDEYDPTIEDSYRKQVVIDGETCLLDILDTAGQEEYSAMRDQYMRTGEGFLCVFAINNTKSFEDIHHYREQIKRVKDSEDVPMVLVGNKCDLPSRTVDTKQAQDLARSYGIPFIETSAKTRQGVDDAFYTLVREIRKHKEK
Sequence (P62937 whole entry): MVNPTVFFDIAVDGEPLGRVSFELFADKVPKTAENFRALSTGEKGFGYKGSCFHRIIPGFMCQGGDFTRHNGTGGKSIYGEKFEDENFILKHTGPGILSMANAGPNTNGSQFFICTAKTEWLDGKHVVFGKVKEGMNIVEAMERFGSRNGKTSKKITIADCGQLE
assay info: Ras-Raf disruption / FRET / MOA assay (BRAF RBD)
Format: biochemical
condition description: Ras-Raf disruption, with Cyclophilin A; read-out: KRAS G12S FRET data IC50
measurement type: IC50

The cases that follow already have their IC50 on record.
CCn1c(-c2cccnc2[C@H](C)OC)c2c3cc(ccc31)-c1cc(O)cc(c1)C[C@H](NC(=O)[C@@H](COC1CN(C(=O)[C@H]3CN3)C1)C(C)C)C(=O)N1CCC[C@H](N1)C(=O)OCC(C)(C)C2 [Example 312] ... 1000 to 10000 nM
CCn1c(-c2cccnc2[C@H](C)OC)c2c3cc(ccc31)-c1cc(O)cc(c1)C[C@H](NC(=O)[C@H](C(C)C)N(C)C(=O)[C@H]1CCN(C(=O)[C@@H]3N[C@@H]3C3CC3)C1)C(=O)N1CCC[C@H](N1)C(=O)OCC(C)(C)C2 (atropisomer, axis not shown) [Example 198] ... 10 to 100 nM
CCn1c(-c2cccnc2[C@H](C)OC)c2c3cc(ccc31)-c1csc(n1)C[C@H](NC(=O)[C@H](C(C)C)N(C)C(=O)N1CC[C@H](N(C)C(=O)[C@@H]3CN3)C1)C(=O)N1CCC[C@H](N1)C(=O)OCC(C)(C)C2 (atropisomer, axis not shown) [Example 229] ... 100 to 1000 nM
CCn1c(-c2cccnc2[C@H](C)OC)c2c3cc(ccc31)-c1cccc(c1)C[C@H](NC(=O)[C@H](C(C)C)N(C)C(=O)CCN=C=NCc1ccccc1OC)C(=O)N1CCC[C@H](N1)C(=O)OCC(C)(C)C2 [Example 73] ... 1000 to 10000 nM
CCn1c(-c2cccnc2[C@H](C)OC)c2c3cc(ccc31)-c1csc(n1)C[C@H](NC(=O)[C@H](C(C)C)N(C)C(=O)N(C)CC1CN(C(=O)[C@@H]3CN3)C1)C(=O)N1CCC[C@H](N1)C(=O)OCC(C)(C)C2 (atropisomer, axis not shown) [Example 294] ... 100 to 1000 nM

Q) For the compound shown here, CCn1c(-c2cccnc2[C@H](C)OC)c2c3cc(ccc31)-c1csc(n1)C[C@H](NC(=O)[C@H](C(C)C)N(C)C(=O)N1CCC(CN(C)C(=O)[C@H]3CN3)CC1)C(=O)N1CCC[C@H](N1)C(=O)OCC(C)(C)C2 (atropisomer, axis not shown) [Example 326] , give the reported IC50.
A) 10 to 100 nM

Q) Input CCn1c(-c2cccnc2[C@H](C)OC)c2c3cc(ccc31)-c1cc(O)cc(c1)C[C@H](NC(=O)[C@H](C(C)C)N(C)C(=O)N1CC(NC(=O)[C@H]3CN3)C1)C(=O)N1CCC[C@H](N1)C(=O)OCC(C)(C)C2 (atropisomer, axis not shown) [Example 189]
A) 100 to 1000 nM

Q) Try CCn1c(-c2cccnc2[C@H](C)OC)c2c3cc(ccc31)-c1cc(O)cc(c1)C[C@H](NC(=O)[C@H](C(C)C)N(C)C(=O)[C@H]1CCN(C(=O)C3(C)CO3)C1)C(=O)N1CCC[C@H](N1)C(=O)OCC(C)(C)C2 (some centres unmarked) [Example 332] next.
A) 10 to 100 nM
